# target_or_system: Fibroblast growth factor 2 (Homo sapiens) (UniProt P09038)
# Sequence (P09038 whole entry, looked up): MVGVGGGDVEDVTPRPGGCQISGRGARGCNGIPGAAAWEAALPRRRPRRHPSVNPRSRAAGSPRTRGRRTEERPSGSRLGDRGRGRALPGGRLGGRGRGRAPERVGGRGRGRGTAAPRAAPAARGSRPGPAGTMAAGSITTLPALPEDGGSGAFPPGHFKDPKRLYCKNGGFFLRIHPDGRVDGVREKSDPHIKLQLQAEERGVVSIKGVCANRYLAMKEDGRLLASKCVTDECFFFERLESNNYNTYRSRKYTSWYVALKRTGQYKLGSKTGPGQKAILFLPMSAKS
# assay_overview: FGF2 binders on small-molecule microarrays, primary screen, biochemical, small-molecule microarray, 635/667 nm fluorescence (AID 1133)
# conditions: small-molecule microarray binding, FGF2, fluorescence 635/667; higher = more signal
readout_name: composite z-score
Lab note: record just the number, no unit beside it.

I would be grateful if you could share the reported composite z-score for COc1ccc(C#Cc2ccc3c(c2)[C@]2(C(=O)N3)[C@H](C(=O)NC[C@H](O)c3ccccc3)[C@H]3C(=O)O[C@H](c4ccccc4)[C@H](c4ccccc4)N3[C@@H]2c2ccccc2OCCO)cc1 .
0.604

Then COCCCNC(=O)[C@@]1(C)c2ccccc2C(=O)N(Cc2cc(C(F)(F)F)cc(C(F)(F)F)c2)[C@H]1c1ccc(CO)cc1 ?
-1.5

Another: COC(=O)[C@@]1(Cc2ccccc2N=[N+]=[N-])COC(c2ccc(OCCCO)cc2)=N1
0.3

Same lookup for CC(C)N1C(=O)c2ccccc2[C@@H](C(=O)NCCCN(C)C)[C@@H]1c1ccc(CO)cc1 , please.
-0.521

Cool, now COc1ccc([Si](C)(C)[C@@H]2[C@@H](CCn3cc([C@H](O)c4ccccc4)nn3)O[C@]3(C(=O)N(Cc4cccc(N5CCOC5=O)c4)c4ccccc43)[C@H]2C)cc1
-0.977

Try this compound next: CC(C)(C)OC(=O)CC[C@@]1(C(=O)O)N=C(c2ccc(OCCCO)cc2)O[C@@H]1c1ccccc1N=[N+]=[N-]
-0.349

// repeat for CC(C)=CCCC(C)=CC(O)C1C=CC2C(=O)N(c3ccccc3)C(=O)C2N1Nc1ccccc1 (configuration not stated) and report
0.227

Cited source: PubChem BioAssay
